Test system: NCI-H196 (Small Cell Lung Carcinoma)
method: combination Emax (second highest fraction inhibited in the dose matrix, 72 h); higher = more inhibition; extreme values may be limits of the assay
// values below are reported combination Emax
measured quantity: combination Emax

compound	measured quantity	test value
C[C@@H](c1ccc2nccn2c1)n1nnc2ncc(-c3cnn(C)c3)nc21 [Savolitinib] + CN(CC[C@H](CSC1=CC=CC=C1)NC2=C(C=C(C=C2)S(=O)(=O)NC(=O)C3=CC=C(C=C3)N4CCC(CC4)[C@H](C5=CC=CC=C5C6=CC=C(C=C6)Cl)O)S(=O)(=O)C(F)(F)F)CCO [AZD4320] (first compound max 1 µM, 7x7, partner max 1 µM)	combination Emax	0.2
COc1nnc2ccc(N3CCC(c4ccc(OCCN5CCN(C)C(=O)[C@H]5C)cc4)CC3)nn12 [AZD5153] + Cc1c2c(nn1C)CSCc1cc(n(C)n1)CSc1cc(c3ccccc3c1)OCCCc1c(C(=O)O)n(C)c3c-2c(Cl)ccc13 [AZD5991] (first compound max 1 µM, 7x7, partner max 1 µM)	combination Emax	0.307
CCN(CCO)CCCOc1ccc2c(Nc3cc(CC(=O)Nc4cccc(F)c4)[nH]n3)ncnc2c1 [AZD2811] + C=CCn1c(=O)c2cnc(Nc3ccc(N4CCN(C)CC4)cc3)nc2n1-c1cccc(C(C)(C)O)n1 [AZD1775] (first compound max 1 µM, partner max 1 µM)	combination Emax	0.468
COc1cccc2c1C(=O)c1c(O)c3c(c(O)c1C2=O)C[C@@](O)(C(=O)CO)C[C@@H]3O[C@H]1C[C@H](N)[C@H](O)[C@H](C)O1 [Doxorubicin] + Cc1cc2ncnn2cc1Nc1ncc2c(n1)n(C1CCOCC1)c(=O)n2C [AZD7648] (first compound max 1 µM, 7x7, partner max 10 µM)	combination Emax	0.145
Cc1c2c(nn1C)CSCc1cc(n(C)n1)CSc1cc(c3ccccc3c1)OCCCc1c(C(=O)O)n(C)c3c-2c(Cl)ccc13 [AZD5991] + CN(C)CCCOc1ccc(-c2ccc3ncc4c(c3c2)n(C2CCOCC2)c(=O)n4C)cn1 [AZD0156] (first compound max 1 µM, 7x7, partner max 1 µM)	combination Emax	0.205

* * *

Tested on: RT4 (Bladder Carcinoma)
method: combination Emax (second highest fraction inhibited in the dose matrix, 72 h); higher = more inhibition; extreme values may be limits of the assay
Reported combination Emax values are given for each entry in this list.

compound	test target	combination Emax
COc1cccc(OCCCN)c1-c1cc(Nc2cnc(C#N)cn2)n[nH]1 [Prexasertib] + CN(C)CCCOc1ccc(-c2ccc3ncc4c(c3c2)n(C2CCOCC2)c(=O)n4C)cn1 [AZD0156] (first compound max 1 µM, 7x7, partner max 1 µM)	RT4 (Bladder Carcinoma)	0.304
NC1(C(=O)N[C@@H](CCO)c2ccc(Cl)cc2)CCN(c2ncnc3[nH]ccc23)CC1 [Capivasertib] + COc1nnc2ccc(N3CCC(c4ccc(OCCN5CCN(C)C(=O)[C@H]5C)cc4)CC3)nn12 [AZD5153] (first compound max 10 µM, 7x7, partner max 1 µM)	RT4 (Bladder Carcinoma)	0.457

* * *

Examples of compounds with documented combination Emax follow.
System: KYSE-70 (Esophageal Squamous Cell Carcinoma)
method: combination Emax (second highest fraction inhibited in the dose matrix, 72 h); higher = more inhibition; extreme values may be limits of the assay

compound	test target	combination Emax
Cn1cnc2c(F)c(Nc3ccc(Br)cc3Cl)c(C(=O)NOCCO)cc21 [Selumetinib] + C[C@@H]1COCCN1C2=NC(=NC(=C2)C3(CC3)[S@](=N)(=O)C)C4=C5C=CNC5=NC=C4 [AZD6738] (first compound max 10 µM, 7x7, partner max 10 µM)	KYSE-70 (Esophageal Squamous Cell Carcinoma)	0.243
C=CCn1c(=O)c2cnc(Nc3ccc(N4CCN(C)CC4)cc3)nc2n1-c1cccc(C(C)(C)O)n1 [AZD1775] + O=C(c1cc(Cc2n[nH]c(=O)c3ccccc23)ccc1F)N1CCN(C(=O)C2CC2)CC1 [Olaparib] (first compound max 1 µM, partner max 10 µM)	KYSE-70 (Esophageal Squamous Cell Carcinoma)	0.655
Cn1cnc2c(F)c(Nc3ccc(Br)cc3Cl)c(C(=O)NOCCO)cc21 [Selumetinib] + CCN(CCO)CCCOc1ccc2c(Nc3cc(CC(=O)Nc4cccc(F)c4)[nH]n3)ncnc2c1 [AZD2811] (first compound max 10 µM, 7x7, partner max 1 µM)	KYSE-70 (Esophageal Squamous Cell Carcinoma)	0.21
NC1(C(=O)N[C@@H](CCO)c2ccc(Cl)cc2)CCN(c2ncnc3[nH]ccc23)CC1 [Capivasertib] + COc1nnc2ccc(N3CCC(c4ccc(OCCN5CCN(C)C(=O)[C@H]5C)cc4)CC3)nn12 [AZD5153] (first compound max 10 µM, 7x7, partner max 1 µM)	KYSE-70 (Esophageal Squamous Cell Carcinoma)	0.358

* * *

Listing of recorded Bliss excess by entry.
Test system: RT4 (Bladder Carcinoma)
method: Bliss excess, mean over the matrix (fraction); higher = more synergy

compound	Bliss excess
CN(CCO)CC[C@H](CSc1ccccc1)Nc1ccc(S(=O)(=O)NC(=O)c2ccc(N3CCC([C@@H](O)c4ccccc4-c4ccc(Cl)cc4)CC3)cc2)cc1S(=O)(=O)C(F)(F)F [AZD4320] + Cn1cnc2c(F)c(Nc3ccc(Br)cc3Cl)c(C(=O)NOCCO)cc21 [Selumetinib] (first compound max 1 µM, 7x7, partner max 3 µM)	0.112
COc1nnc2ccc(N3CCC(c4ccc(OCCN5CCN(C)C(=O)[C@H]5C)cc4)CC3)nn12 [AZD5153] + Cc1c2c(nn1C)CSCc1cc(n(C)n1)CSc1cc(c3ccccc3c1)OCCCc1c(C(=O)O)n(C)c3c-2c(Cl)ccc13 [AZD5991] (first compound max 1 µM, 7x7, partner max 1 µM)	0.0009

* * *

Collected combination Emax values appear next to each entry.
Test system: Becker (Low Grade Glioma)
method: combination Emax (second highest fraction inhibited in the dose matrix, 72 h); higher = more inhibition; extreme values may be limits of the assay
measured quantity: combination Emax

compound	measured quantity	test value
Cc1cc2ncnn2cc1Nc1ncc2c(n1)n(C1CCOCC1)c(=O)n2C [AZD7648] + O=C(c1cc(Cc2n[nH]c(=O)c3ccccc23)ccc1F)N1CCN(C(=O)C2CC2)CC1 [Olaparib] (first compound max 10 µM, 7x7, partner max 10 µM)	combination Emax	0.12
C[C@@H](c1ccc2nccn2c1)n1nnc2ncc(-c3cnn(C)c3)nc21 [Savolitinib] + Cc1c2c(nn1C)CSCc1cc(n(C)n1)CSc1cc(c3ccccc3c1)OCCCc1c(C(=O)O)n(C)c3c-2c(Cl)ccc13 [AZD5991] (first compound max 1 µM, 7x7, partner max 1 µM)	combination Emax	0.366
CN(CCO)CC[C@H](CSc1ccccc1)Nc1ccc(S(=O)(=O)NC(=O)c2ccc(N3CCC([C@@H](O)c4ccccc4-c4ccc(Cl)cc4)CC3)cc2)cc1S(=O)(=O)C(F)(F)F [AZD4320] + Nc1ccn([C@@H]2O[C@H](CO)[C@@H](O)C2(F)F)c(=O)n1 [Gemcitabine] (first compound max 1 µM, 7x7, partner max 0.3 µM)	combination Emax	0.8

* * *

Test system: SW684 (Other Solid Carcinomas)
method: Bliss excess, mean over the matrix (fraction); higher = more synergy
# Bliss excess per record follows

compound	test target	Bliss excess
Cc1c2c(nn1C)CSCc1cc(n(C)n1)CSc1cc(c3ccccc3c1)OCCCc1c(C(=O)O)n(C)c3c-2c(Cl)ccc13 [AZD5991] + C[C@@H](Nc1cc(F)cc(F)c1)c1cc(C(=O)N(C)C)cc2c(=O)cc(N3CCOCC3)oc12 [AZD8186] (first compound max 1 µM, 7x7, partner max 3 µM)	SW684 (Other Solid Carcinomas)	-0.0553
Cn1cnc2c(F)c(Nc3ccc(Br)cc3Cl)c(C(=O)NOCCO)cc21 [Selumetinib] + CCN(CCO)CCCOc1ccc2c(Nc3cc(CC(=O)Nc4cccc(F)c4)[nH]n3)ncnc2c1 [AZD2811] (first compound max 10 µM, 7x7, partner max 1 µM)	SW684 (Other Solid Carcinomas)	-0.036
CC(=O)c1c(C)c2cnc(Nc3ccc(N4CCNCC4)cn3)nc2n(C2CCCC2)c1=O [Palbociclib] + Cn1cnc2c(F)c(Nc3ccc(Br)cc3Cl)c(C(=O)NOCCO)cc21 [Selumetinib] (first compound max 10 µM, 7x7, partner max 10 µM)	SW684 (Other Solid Carcinomas)	-0.018
CCN(CCO)CCCOc1ccc2c(Nc3cc(CC(=O)Nc4cccc(F)c4)[nH]n3)ncnc2c1 [AZD2811] + C=CCn1c(=O)c2cnc(Nc3ccc(N4CCN(C)CC4)cc3)nc2n1-c1cccc(C(C)(C)O)n1 [AZD1775] (first compound max 1 µM, partner max 1 µM)	SW684 (Other Solid Carcinomas)	-0.0454

* * *

System: 786-0 (Kidney Carcinoma)
method: combination Emax (second highest fraction inhibited in the dose matrix, 72 h); higher = more inhibition; extreme values may be limits of the assay

compound	combination Emax
CC1(C)CCC(CN2CCN(c3ccc(C(=O)NS(=O)(=O)c4ccc(NCC5CCOCC5)c([N+](=O)[O-])c4)c(Oc4cnc5[nH]ccc5c4)c3)CC2)=C(c2ccc(Cl)cc2)C1 [Venetoclax] + CN(C)CCCOc1ccc(-c2ccc3ncc4c(c3c2)n(C2CCOCC2)c(=O)n4C)cn1 [AZD0156] (first compound max 1 µM, 7x7, partner max 1 µM)	0.195
COc1cccc(OCCCN)c1-c1cc(Nc2cnc(C#N)cn2)n[nH]1 [Prexasertib] + CCc1c2c(nc3ccc(O)cc13)-c1cc3c(c(=O)n1C2)COC(=O)[C@]3(O)CC [SN-38] (first compound max 1 µM, 7x7, partner max 0.3 µM)	0.938
C[C@@H]1COCCN1c1cc(C2([S@](C)(=N)=O)CC2)nc(-c2ccnc3[nH]ccc23)n1 [AZD6738] + O=C(c1cc(Cc2n[nH]c(=O)c3ccccc23)ccc1F)N1CCN(C(=O)C2CC2)CC1 [Olaparib] (first compound max 10 µM, 7x7, partner max 10 µM)	0.679
